Biological target: Proteasome subunit beta type-2 (Mus musculus, UniProt Q9R1P3)
Sequence (Q9R1P3 whole entry): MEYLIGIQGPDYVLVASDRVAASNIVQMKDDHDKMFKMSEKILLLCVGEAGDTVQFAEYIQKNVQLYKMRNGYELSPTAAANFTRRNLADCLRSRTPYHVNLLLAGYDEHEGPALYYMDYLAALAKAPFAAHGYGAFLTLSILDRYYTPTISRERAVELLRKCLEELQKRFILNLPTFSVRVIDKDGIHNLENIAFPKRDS
Experiment: Inhibition of 20S proteosome beta 2 in mouse A20 cells by ELISA
pIC50: −log10 of the molar value.
endpointName: pIC50

> print(dat)
                            substancesmiles  endpointname  observed
1  COc1ccc([C@@H](O)[C@H](NC(=O)[C@H](C)NC(=O)CN2CCOCC2)C(=O)N[C@@H](CC2=CCCC2)C(=O)[C@@]2(C)CO2)cc1         pIC50      6.07
2  CC(C)C[C@H](NC(=O)CN1CCCCCC1)C(=O)N[C@@H](Cc1ccccc1)C(=O)N[C@@H](Cc1ccccc1)C(=O)[C@@]1(C)CO1         pIC50      6.85
3  Cc1ccc(CC[C@H](NC(=O)[C@H](Cc2ccccc2)NC(=O)[C@H](CC(C)C)NC(=O)CN2CCCCCC2)C(=O)[C@@]2(C)CO2)cc1         pIC50      6.24
